Recorded Percent Effect values for a group of compounds are listed next.
System: Plasmodium falciparum
assay.info: Calibr Malaria Delayed Death Assay SOP
Assay type: functional, organism-based
Parameters: scale not given: in the data most compounds retested in dose-response had high values
particulars: concentration 4.99e-06 (unit not given; other assays of the set use mol/L)
In all, about 38,000 compounds went through this assay and about 1,200 (3.2%) showed an effect of 50% or more. The median lay at about -58%. The sample as a whole holds a higher share of strong results than the screen did.
Entry rule: numbers only, all in %.

CN(C)C(=O)CN1CCN(Cc2coc(-c3cccc(F)c3)n2)CC1    -61.15
Cc1ccc(CN2CCCC3(CCN(Cc4ccc(C)o4)C3)C2)o1 (stereo not given)    14.98
Cc1cc(CN2CCCC2)cc(Oc2ccc3c(c2)CC(CN)O3)c1 (stereo not given)    26.4
Cc1ccc(CN(C)CC2(O)CCCN(C)C2)o1 (stereo not given)    53.08

Incoming: Give the reported Percent Effect for this compound. O=C(O)CC1COCCN1Cc1ccccc1-c1ccccc1 (stereo not given)
Outgoing: -118

Incoming: Give the reported Percent Effect for this compound. CN(C)C1CCCN(C(=O)NCCc2cc(F)ccc2F)C1 (stereo not given)
Outgoing: -83

Incoming: Give the reported Percent Effect for this compound. COCCOCC(=O)Nc1ccccc1F
Outgoing: -49.03

Incoming: Give the reported Percent Effect for this compound. COc1cc(CN2CCCC2)ccc1Oc1ccc2c(c1)CC(CN)O2 (stereo not given)
Outgoing: 58.6

Incoming: Give the reported Percent Effect for this compound. Cn1c(=O)oc2cc(S(=O)(=O)N3CCC(c4ccccc4)C3)c(Cl)cc21 (stereo not given)
Outgoing: -8.531

Incoming: Give the reported Percent Effect for this compound. COc1ccc(CN2CCCC2)cc1Oc1cccc(C#N)n1
Outgoing: 41.79

Provenance of the data: ChEMBL document CHEMBL3988442
